Tested on: Mycobacterium tuberculosis
Test Method Notes: Antituberculosis activity against Mycobacterium tuberculosis H37Rv by agar dilution method
Assay type: functional
Known MIC of a selection of molecules

| Entry Smiles | Readout Qualifier | MIC, µg/mL |
| --- | --- | --- |
| CCOC(=O)c1nnn(CC(=O)c2ccc(Br)cc2)c1C(=O)OCC | = | 1.56 |
| CC[C@@H](CO)NCCN[C@@H](CC)CO | = | 3.25 |
| CCOC(=O)c1nnn(CC(=O)OC)c1C(=O)OCC | > | 25 |
| CCOC(=O)c1nnn(CC(=O)c2ccc(Cl)cc2)c1C(=O)OCC | = | 3.13 |
| NNC(=O)c1ccncc1 | = | 0.75 |
| COC(=O)c1nnn(CC(=O)c2ccccc2)c1C(=O)OC | = | 12.5 |
| COC(=O)c1nnn(CC(=O)c2ccc(OC)cc2)c1C(=O)OC | = | 12.5 |
| CCOC(=O)Cn1nnc(C(=O)OC)c1C(=O)OC | > | 25 |
| CCOC(=O)c1nnn(Cc2ccccc2)c1C(=O)OCC | = | 12.5 |
| COC(=O)c1nnn(CC(=O)c2ccc(Cl)cc2)c1C(=O)OC | = | 6.25 |
| CCOC(=O)c1nnn(CC(=O)c2ccccc2)c1C(=O)OCC | = | 3.13 |
| COC(=O)Cn1nnc(C(=O)OC)c1C(=O)OC | > | 25 |
| CCOC(=O)Cn1nnc(C(=O)OCC)c1C(=O)OCC | > | 25 |
| CCOC(=O)c1nnn(CC(=O)c2ccc(OC)cc2)c1C(=O)OCC | = | 6.25 |
| COC(=O)c1nnn(CC(=O)c2ccc(Br)cc2)c1C(=O)OC | = | 3.13 |
| COC(=O)c1nnn(Cc2ccccc2)c1C(=O)OC | = | 25 |
